B1: GLTSCR2 (parent)
chain: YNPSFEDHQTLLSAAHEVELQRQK

variants of: B1; assay: protein stability index of a GFP-peptide fusion (GPS, HEK-293T) (PSI 1-6); higher = more stable; settings: c terminus: a fixed tail appended;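 also: lentivirally expressed fusions sorted by FACS into six bins by GFP to DsRed ratio, PSI derived from sequencing read proportions per bin multiplied by bin number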
assay.readout: protein stability index

> print(dat)
    variant.label  experimental.result
 1           H16F                 2.91
 2            P3I                 3.82
 3           V18Y                 3.49
 4            D7C                 4.08
 5           L11T                 5.29
 6            Y1K                 4.87
 7           K24I                 3.33
 8           E17C                 2.88
 9           T10V                 3.53
10            H8Q                 3.84
11           Q21E                 3.42
12            H8V                 2.33
13            S4C                 4.07
14           S13H                 3.47
15           Q23S                 3.63
16           K24C                 3.22
17           K24G                 3.78
18            P3M                 4.08
19           E17Q                 2.94
20           A14N                 4.04
21           E17L                 2.96
22            H8G                 4.05
23            N2G                 4.39
24            E6Y                 2.67
25           A14S                  4.2
26            Q9M                 2.72
27            S4F                    4
28           Q21V                 3.28
29            F5W                 3.07
30            Q9P                 4.08
31            Y1P                 5.16
32           T10P                  3.7
33            E6M                 2.38
34            H8W                 1.88
35           K24L                 3.48
36           E19W                 2.75
37           L11C                 4.26
38           S13A                 3.21
39           H16M                 3.63
40            Y1W                 4.16
41           Q23G                 4.12
42           L12H                 4.61
43           L20A                 4.04
44            D7H                 3.67
45           A15Y                 3.48
46            Q9N                  4.1
47           R22P                 4.21
48           E17R                  3.4
49            P3F                 4.06
